Assay overview: The drug is tested on Z-020 corresponding to rabbit gut metagenome with ENA study accession number: PRJEB37062 and ENA sample accession number: ERS12561819 for biotransformation under anaerobic condition. The drug concentrations were measured over 9 timepoints collected between 0 and 24 hours of incubation by liquid-chromatography-coupled mass spectrometry (LC–MS); note: call rule not given here
Condition context: 2 µM
Measurement label: Bacterial Biotransformation

The examples below pair each entry with its known result.
Compound	Bacterial Biotransformation
CCN(CC)C(=O)/C(C#N)=C/c1cc(O)c(O)c([N+](=O)[O-])c1	Compound metabolized
CC(=O)CC(c1ccccc1)c1c(O)c2ccccc2oc1=O (configuration not stated)	Compound metabolized
Cc1nc2n(c(=O)c1CCN1CCC(c3noc4cc(F)ccc34)CC1)CCCC2	Compound metabolized
NC(=O)N1c2ccccc2CC(=O)c2ccccc21 [OXCARBAZEPINE]	Compound NOT metabolized
O=P(O)(O)O.c1ccc(CN(CC2=NCCN2)c2ccccc2)cc1 [ANTAZOLINE PHOSPHATE]	Compound NOT metabolized
CCC(COC(=O)c1cc(OC)c(OC)c(OC)c1)(c1ccccc1)N(C)C.O=C(O)/C=C\C(=O)O (configuration not stated)	Compound metabolized

Need Bacterial Biotransformation, item CCCCCCOC(=O)/N=C(/N)c1ccc(NCc2nc3cc(C(=O)N(CCC(=O)OCC)c4ccccn4)ccc3n2C)cc1.CS(=O)(=O)O [DABIGATRAN ETEXILATE MESYLATE] Compound NOT metabolized

What do you have for CCCCc1nc(Cl)c(CO)n1Cc1ccc(-c2ccccc2-c2nn[nH]n2)cc1 ? Compound NOT metabolized

What do you have for CC(C)(Oc1ccc(CCNC(=O)c2ccc(Cl)cc2)cc1)C(=O)O [BEZAFIBRATE] ? Compound NOT metabolized

What do you have for Nc1nc2ccc(OC(F)(F)F)cc2s1 ? Compound metabolized

What do you have for CS(=O)(=O)O.OC(CCN1CCCCC1)(c1ccccc1)c1ccccc1 [PRIDINOL METHANESULFONATE] ? Compound NOT metabolized

What do you have for O=c1[nH]c2ccccc2n1CCCN1CCC(n2c(=O)[nH]c3cc(Cl)ccc32)CC1 ? Compound NOT metabolized

What do you have for CC(C(=O)O)c1ccc2c(c1)Cc1cccnc1O2 (configuration not stated) ? Compound metabolized

What do you have for CC(C)(C)NC[C@H](O)COc1ccccc1C1CCCC1.CC(C)(C)NC[C@H](O)COc1ccccc1C1CCCC1.O=S(=O)(O)O [PENBUTOLOL SULFATE] ? Compound metabolized

What do you have for CCN(CC)CCOC(=O)C(Cc1cccc2ccccc12)CC1CCCO1.O=C(O)C(=O)O (configuration not stated) [NAFRONYL OXALATE] ? Compound metabolized

What do you have for CCOc1ccc(NC(C)=O)cc1 ? Compound NOT metabolized

What do you have for O=c1[nH]c2ccccc2n1C1CCN(CCCC(c2ccc(F)cc2)c2ccc(F)cc2)CC1 [PIMOZIDE] ? Compound metabolized

Where do these numbers come from? They come from ChEMBL document CHEMBL5724914.
